Tested on: HRV1A (E28)
procedure summary: Anti-rhinovirus activity (MTT), HRV1A
Type: cell-based, human rhinovirus
measurement conditions: HeLa (Ohio strain) cells, MTT method, 33° C.
IC50 HRV 1A values, listed per item
experimental readout: IC50 HRV 1A

- compound: "CCn1c2c(c(=O)c3cc(C(C)C)ccc31)Cc1cc(OC)ccc1-2 [Compound B10]"
  experimental readout: "IC50 HRV 1A"
  endpoint value: "1.9 µg/mL"
- compound: "CCn1c2c(c(=O)c3cc(C(C)C)ccc31)Cc1cc(OC)c(C)cc1-2 [Compound B20]"
  experimental readout: "IC50 HRV 1A"
  endpoint value: ">2.5 µg/mL"
- compound: "CCc1ccc2c(c1)Cc1c-2n(CC)c2ccc(C(C)C)cc2c1=O [Compound B9]"
  experimental readout: "IC50 HRV 1A"
  endpoint value: ">1 µg/mL"
- compound: "CCn1c2c(c(=O)c3cc(C(C)C)ccc31)C(=NOC)c1ccccc1-2 [Compound C49]"
  experimental readout: "IC50 HRV 1A"
  endpoint value: ">10 µg/mL"
- compound: "CCn1c2c(c(=O)c3cc(C(C)C)ccc31)Cc1cc(OC)c(OC)cc1-2 [Compound B22]"
  experimental readout: "IC50 HRV 1A"
  endpoint value: ">5.9 µg/mL"
- compound: "CCn1c2c(c(=O)c3c(C(C)C)c(OC)ccc31)Cc1ccccc1-2 [Compound B7]"
  experimental readout: "IC50 HRV 1A"
  endpoint value: "1.7 µg/mL"
- compound: "COc1ccc2c(c1)Cc1c-2n(C)c2ccc(CC(C)C)cc2c1=O [Compound B11]"
  experimental readout: "IC50 HRV 1A"
  endpoint value: "1.7 µg/mL"
- compound: "CCc1ccc2c(c1)Cc1c-2n(C)c2ccc(C(C)C)cc2c1=O [Compound B8]"
  experimental readout: "IC50 HRV 1A"
  endpoint value: ">1 µg/mL"
- compound: "CCn1c2c(c(=O)c3cc(C(C)C)ccc31)Cc1ccccc1-2.Cl [Compound B3]"
  experimental readout: "IC50 HRV 1A"
  endpoint value: "2.6 µg/mL"
- compound: "CCn1c2c(c(=O)c3cc(CC(C)C)ccc31)Cc1cc(OC)ccc1-2 [Compound B12]"
  experimental readout: "IC50 HRV 1A"
  endpoint value: ">2.5 µg/mL"
- compound: "CCn1c2c(c(=O)c3cc(CC(C)C)ccc31)Cc1cc(OC)ccc1-2 [Compound B15]"
  experimental readout: "IC50 HRV 1A"
  endpoint value: ">2.5 µg/mL"

----------
Tested on: echovirus type 11 (Echo 11, Gregory)
procedure summary: In vitro anti-picornavirus activity (MTT), Echo 11
Assay type: cell-based
measurement conditions: HeLa-S3 cells, MTT method, 37° C.
Doc: threshold 0.3 µg/mL (exclusive). Items with IC50 Echo 11 beneath it return y; others return n.

- smiles code: "CCn1c(-c2ccsc2)cc(=O)c2cc(C(C)C)ccc21"
  tested system: "echovirus type 11 (Echo 11, Gregory)"
  label class: "n"
- smiles code: "CCn1c(-c2ccc(Br)s2)cc(=O)c2cc(C(C)C)ccc21"
  tested system: "echovirus type 11 (Echo 11, Gregory)"
  label class: "n"
- smiles code: "Cc1cc2c(c(C)c1OCC(C)C)c(=O)cc(-c1ccccc1)n2C"
  tested system: "echovirus type 11 (Echo 11, Gregory)"
  label class: "y"
- smiles code: "CC(C)c1ccc2c(c1)c(=O)cc(-c1ccn(C)c1)n2C"
  tested system: "echovirus type 11 (Echo 11, Gregory)"
  label class: "n"
- smiles code: "CCn1c(-c2ccccc2)c(C)c(=O)c2c(C)c(OCC(C)C)ccc21"
  tested system: "echovirus type 11 (Echo 11, Gregory)"
  label class: "y"
- smiles code: "CCn1c(-c2ccccc2)cc(=O)c2c(C)c(OCC(C)C)ccc21"
  tested system: "echovirus type 11 (Echo 11, Gregory)"
  label class: "y"
- smiles code: "CCn1c(-c2ccccc2)c(C)c(=O)c2ccc(C(C)C)cc21"
  tested system: "echovirus type 11 (Echo 11, Gregory)"
  label class: "n"
- smiles code: "COc1ccc(-n2c(-c3ccccc3)c(C)c(=O)c3cc(C(C)C)ccc32)cc1"
  tested system: "echovirus type 11 (Echo 11, Gregory)"
  label class: "n"
- smiles code: "CCn1c2c(c(=O)c3cc(C(C)C)ccc31)Cc1cc(OC)ccc1-2"
  tested system: "echovirus type 11 (Echo 11, Gregory)"
  label class: "y"
